Biological target: T1, N-hCD73-his (N-terminal domain of human CD73, residues 26-336, His tag) (human, UniProt P21589 26-336)
T1 sequence: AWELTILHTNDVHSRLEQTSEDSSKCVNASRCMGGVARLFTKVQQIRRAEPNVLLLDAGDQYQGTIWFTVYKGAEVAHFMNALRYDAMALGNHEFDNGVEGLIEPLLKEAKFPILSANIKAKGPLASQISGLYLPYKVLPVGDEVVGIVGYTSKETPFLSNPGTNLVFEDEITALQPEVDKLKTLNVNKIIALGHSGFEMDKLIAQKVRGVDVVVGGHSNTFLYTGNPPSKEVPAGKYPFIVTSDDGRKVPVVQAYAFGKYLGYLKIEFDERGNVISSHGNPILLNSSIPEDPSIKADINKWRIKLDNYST
Assay: SPR, mAb captured on protein A
Description: For these experiments, protein A (Pierce) was immobilized to a density of 3000-4000 RU on flow cells 1-4 of a CM5 sensor chip (GE Healthcare) using standard ethyl(dimethylaminopropyl) carbodiimide (EDC)/N-hydroxysuccinimide […] chemistry, with ethanolamine blocking, in a running buffer of 0.01 M HEPES pH 7.4, 0.15 M NaCl, 3 mM EDTA, 0.005% v/v tween 20. […] The running buffer for the kinetic experiments was 10 mM sodium phosphate, 130 mM sodium chloride, 0.05% tween 20, pH 7.1. […]
pKd: −log10 of the molar value.
quantity: pKd

binder	data-value
7A11 (antibody, human IgG1, kappa, V domains shown, IgG1za; also called 7A11-1) VH: EVQLVESGGGLVQTGRSLRLSCAASGFTFDDYAMHWVRQAPGKGLEWVSDISWNSDIIGYADSVKGRFTISRDNAKNSLYLQMNSLRAEDTALYYCAKDIYGSGSSFFDYWGQGILVTVSS VL: DIQMTQSPSSLSASVGDRVTITCRASQYISSWLAWYQQKPEKAPKSLIYAASSLQSGVPSRFSGSGSGTDFTLTISSLQPEDFATYYCQQYHSYPPTFGQGTRLEIKR	9.37

Sourced from patent US20190284293A1
